# System: Crabgrass
# METHOD_DESCRIPTION: Preemergence herbicidal activity, % control of plant growth
# Format: in vivo
# REPORTED_CONDITIONS: Digitaria sanguinalis, pre-emergence, 504 h, 16 lb/acre, about 3 weeks
PROPERTY_LABEL: pest or weed control at 17933.6 g/ha (%)
Quick note: give the figure in %, leave out the unit.

Prompt: Under Crabgrass: report pest or weed control at 17933.6 g/ha of CCC(C)n1c(=O)[nH]c2cccnc2c1=O (stereo not drawn) .
Response: 100

Prompt: State recorded pest or weed control at 17933.6 g/ha with Crabgrass, entry C=CCn1c(=O)[nH]c2cccnc2c1=O , no comment.
Response: 100

Prompt: State pest or weed control at 17933.6 g/ha on Crabgrass. Entry: O=c1[nH]c2cccnc2c(=O)n1Cc1ccccc1
Response: 100

Prompt: Fill: pest or weed control at 17933.6 g/ha (Crabgrass) for this molecule O=c1[nH]c2cccnc2c(=O)n1C1CC1
Response: 100

Prompt: Name the value of pest or weed control at 17933.6 g/ha reported for CC(C)n1c(=O)[nH]c2nccnc2c1=O when tested on Crabgrass.
Response: 70

Prompt: Check Crabgrass data and give pest or weed control at 17933.6 g/ha for CCCn1c(=O)[nH]c2cccnc2c1=O .
Response: 100

----------
Provide the recorded pest or weed control at 8966.8 g/ha for the entries that follow.
# Test system: Snapbeans
# METHOD_DESCRIPTION: Postemergence herbicidal activity, % control of plant growth
# Assay type: in vivo
# REPORTED_CONDITIONS: post-emergence, 264 h, 8 lb/acre, about 11 days
Answer format: numeric, % implied, no suffix.

Prompt: Provide Snapbeans pest or weed control at 8966.8 g/ha reading for CC(C)n1c(=O)[nH]c2cccnc2c1=O .
Response: 90

Prompt: Fill: pest or weed control at 8966.8 g/ha (Snapbeans) for this compound CC(C)n1c(=O)[nH]c2nccnc2c1=O
Response: 30

Prompt: Lab note: Snapbeans assay, enter pest or weed control at 8966.8 g/ha for O=c1[nH]c2nccnc2c(=O)n1C1CCCCC1 here
Response: 100

Prompt: Supply pest or weed control at 8966.8 g/ha measured with Snapbeans for O=c1[nH]c(=O)c2ncccc2[nH]1 [pyrido[3,2-d]pyrimidine-2,4(1H,3H)-dione, reference compound] .
Response: 0

Prompt: State measured pest or weed control at 8966.8 g/ha of the compound O=c1[nH]c2cccnc2c(=O)n1C1CCCCCCC1 with Snapbeans.
Response: 90

----------
Task for the reader: assign each of the following molecules its reported pest or weed control at 17933.6 g/ha.
# System: Snapbeans
# METHOD_DESCRIPTION: Preemergence herbicidal activity, % control of plant growth
# Assay type: in vivo
# REPORTED_CONDITIONS: pre-emergence, 504 h, 16 lb/acre, about 3 weeks
Provide only the numeric value, understood in %.

Prompt: Specify measured pest or weed control at 17933.6 g/ha for CCC(C)n1c(=O)[nH]c2cccnc2c1=O (stereo not drawn) .
Response: 100

Prompt: Give a short answer stating reported pest or weed control at 17933.6 g/ha for O=c1[nH]c2nccnc2c(=O)n1C1CCCCCCC1 [Lumazine, 3-cyclooctyl] .
Response: 100

Prompt: Kindly indicate its recorded pest or weed control at 17933.6 g/ha. Item: O=c1[nH]c2cccnc2c(=O)n1C1CC1
Response: 100

Prompt: Kindly indicate its recorded pest or weed control at 17933.6 g/ha. Item: CCC(C)n1c(=O)[nH]c2nccnc2c1=O (stereo not drawn) [Lumazine, 3-sec-butyl]
Response: 90

Prompt: Given O=c1[nH]c2cccnc2c(=O)n1C1CCCCCCC1 , respond with its pest or weed control at 17933.6 g/ha.
Response: 100

Prompt: Please look at this molecule and report its pest or weed control at 17933.6 g/ha: CC(C)n1c(=O)[nH]c2nccnc2c1=O [Lumazine, 3-isopropyl]
Response: 90

Prompt: Retrieve pest or weed control at 17933.6 g/ha measured for CCn1c(=O)[nH]c2ncccc2c1=O and print it.
Response: 100

Prompt: Determine its reported pest or weed control at 17933.6 g/ha: C=CCn1c(=O)[nH]c2cccnc2c1=O
Response: 100

Prompt: Tell us which pest or weed control at 17933.6 g/ha value is on record for O=c1[nH]c2nccnc2c(=O)n1C1CCCCC1 [Lumazine, 3-cyclohexyl]
Response: 100

Prompt: Specify reported pest or weed control at 17933.6 g/ha for the molecule shown: CCCn1c(=O)[nH]c2cccnc2c1=O
Response: 100

Prompt: Give the reported value of pest or weed control at 17933.6 g/ha for this record: CCCCn1c(=O)[nH]c2cccnc2c1=O
Response: 100

Prompt: // Input: CCCCn1c(=O)[nH]c2nccnc2c1=O [Lumazine, 3-butyl] . Output its pest or weed control at 17933.6 g/ha only.
Response: 20

Prompt: In one line, give reported pest or weed control at 17933.6 g/ha of the entry CCCCC(CC)Cn1c(=O)[nH]c2cccnc2c1=O (stereo not drawn) .
Response: 0

Prompt: Please indicate pest or weed control at 17933.6 g/ha recorded for CCn1c(=O)[nH]c2cccnc2c1=O
Response: 100

Prompt: Output pest or weed control at 17933.6 g/ha of CC(C)n1c(=O)[nH]c2cccnc2c1=O
Response: 100

Prompt: Let me know recorded pest or weed control at 17933.6 g/ha for O=c1[nH]c2cccnc2c(=O)n1Cc1ccccc1 , thanks.
Response: 10

Prompt: Supply reported pest or weed control at 17933.6 g/ha belonging to this molecule: O=c1[nH]c2cccnc2c(=O)n1C1CCCCC1
Response: 100

Prompt: Retrieve pest or weed control at 17933.6 g/ha measured for O=c1[nH]c(=O)c2ncccc2[nH]1 [pyrido[3,2-d]pyrimidine-2,4(1H,3H)-dione, reference compound] and print it.
Response: 0

----------
# Test system: Johnsongrass
# METHOD_DESCRIPTION: Preemergence herbicidal activity, % control of plant growth
# Type: in vivo
# REPORTED_CONDITIONS: Sorghum halepense, pre-emergence, 504 h, 16 lb/acre, about 3 weeks
# Description: By "preemergence" is meant that the compound is applied to the soil prior to emergence of the weed species sought to be controlled. […] Approximately 3 weeks after spray application, the herbicidal activity of the compound was determined by visual observation of the treated area in comparison with untreated control areas. […]
PROPERTY_LABEL: pest or weed control at 17933.6 g/ha (%)
Report as a plain number; the unit % is understood.

Prompt: Find the measured pest or weed control at 17933.6 g/ha of O=c1[nH]c2cccnc2c(=O)n1C1CC1 and report it.
Response: 10

Prompt: For CC(C)n1c(=O)[nH]c2nccnc2c1=O , write its pest or weed control at 17933.6 g/ha.
Response: 70

Prompt: Item CCn1c(=O)[nH]c2cccnc2c1=O : provide pest or weed control at 17933.6 g/ha
Response: 60

Prompt: Complete the entry with pest or weed control at 17933.6 g/ha for CCCn1c(=O)[nH]c2cccnc2c1=O
Response: 100

Prompt: Supply reported pest or weed control at 17933.6 g/ha belonging to this compound: CCCCn1c(=O)[nH]c2nccnc2c1=O
Response: 0

Prompt: Name the recorded pest or weed control at 17933.6 g/ha of the item O=c1[nH]c2cccnc2c(=O)n1C1CCCCC1 in your answer.
Response: 100

Prompt: Please report pest or weed control at 17933.6 g/ha for the following compound: CCC(C)n1c(=O)[nH]c2nccnc2c1=O (centres unmarked)
Response: 40

Prompt: Quickly give me recorded pest or weed control at 17933.6 g/ha for CCCCn1c(=O)[nH]c2cccnc2c1=O
Response: 100

Prompt: Tell me its pest or weed control at 17933.6 g/ha given O=c1[nH]c(=O)c2ncccc2[nH]1 [pyrido[3,2-d]pyrimidine-2,4(1H,3H)-dione, reference compound] as the entry.
Response: 0

Prompt: Supply pest or weed control at 17933.6 g/ha value. Item: O=c1[nH]c2nccnc2c(=O)n1C1CCCCC1
Response: 30

Prompt: Name the recorded pest or weed control at 17933.6 g/ha of the compound listed here: C=CCn1c(=O)[nH]c2cccnc2c1=O
Response: 90

----------
# Tested on: Alfalfa
# METHOD_DESCRIPTION: Postemergence herbicidal activity, % control of plant growth
# Type: in vivo
# REPORTED_CONDITIONS: Medicago sativa, post-emergence, 264 h, 8 lb/acre, about 11 days
Please go through the items and note down their pest or weed control at 8966.8 g/ha.
Quote the value and follow it with the unit of measurement.

Prompt: # return recorded pest or weed control at 8966.8 g/ha for entry O=c1[nH]c2nccnc2c(=O)n1C1CCCCCCC1
Response: 10%

Prompt: Input O=c1[nH]c2cccnc2c(=O)n1C1CCCCC1 , output reported pest or weed control at 8966.8 g/ha.
Response: 30%

Prompt: Tell me its pest or weed control at 8966.8 g/ha given O=c1[nH]c2cccnc2c(=O)n1C1CCCCCCC1 as the entry.
Response: 60%

Prompt: Give a short answer stating reported pest or weed control at 8966.8 g/ha for CCCn1c(=O)[nH]c2cccnc2c1=O .
Response: 100%

Prompt: Determine from records and report pest or weed control at 8966.8 g/ha for CCCCn1c(=O)[nH]c2nccnc2c1=O
Response: 0%

Prompt: // Input: CCC(C)n1c(=O)[nH]c2nccnc2c1=O (centres unmarked) . Output its pest or weed control at 8966.8 g/ha only.
Response: 50%

Prompt: Please report the measured pest or weed control at 8966.8 g/ha for O=c1[nH]c(=O)c2ncccc2[nH]1 [pyrido[3,2-d]pyrimidine-2,4(1H,3H)-dione, reference compound]
Response: 0%

Prompt: Give the value of pest or weed control at 8966.8 g/ha reported for the following: CC(C)n1c(=O)[nH]c2nccnc2c1=O
Response: 0%

Prompt: For O=c1[nH]c2nccnc2c(=O)n1C1CCCCC1 , write its pest or weed control at 8966.8 g/ha.
Response: 100%

Prompt: Note down pest or weed control at 8966.8 g/ha recorded for O=c1[nH]c2cccnc2c(=O)n1Cc1ccccc1
Response: 0%

Prompt: # return recorded pest or weed control at 8966.8 g/ha for entry CCC(C)n1c(=O)[nH]c2cccnc2c1=O (centres unmarked)
Response: 100%

Prompt: Assign pest or weed control at 8966.8 g/ha to the following record: CC(C)n1c(=O)[nH]c2cccnc2c1=O
Response: 90%

Prompt: Look up pest or weed control at 8966.8 g/ha of C=CCn1c(=O)[nH]c2cccnc2c1=O and report it.
Response: 100%

Prompt: Please give measured pest or weed control at 8966.8 g/ha of the following entry: CCCCn1c(=O)[nH]c2cccnc2c1=O
Response: 50%

Prompt: Give reported pest or weed control at 8966.8 g/ha value for CCCCC(CC)Cn1c(=O)[nH]c2cccnc2c1=O (centres unmarked)
Response: 0%

Prompt: Using the record for CCn1c(=O)[nH]c2cccnc2c1=O , state its measured pest or weed control at 8966.8 g/ha.
Response: 50%

Prompt: For the molecule O=c1[nH]c2cccnc2c(=O)n1C1CC1 , give its reported pest or weed control at 8966.8 g/ha.
Response: 0%
